- TARGET DESC: Potassium voltage-gated channel subfamily KQT member 1 (Homo sapiens)
- ASSAY: KCNQ1 channel current potentiators, confirmation, orthogonal assay for KCNQ1 potentiator project, IonWorks patch clamp, KCNQ1-CHO cells (AID 493184)
- MEASUREMENT CONTEXT: automated patch clamp current, at 10 µM
Activity calls are given as the source filed them.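 Rule for the calls: active = current rise at least 3 SD above the untreated control mean in each of two repeat wells; inactive = the rest.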
Lab note: assign the record to one of class 1 for active, class 0 for inactive

> print(dat)
                            compound  assigned.class
1  Cc1ccc(-c2csc3nc[nH]c(=S)c23)cc1C         class 0

Qu. GET /call?item= `O=C(COC(=O)C12CC3CC(CC(C3)C1)C2)NCCCc1ccccc1` returns the recorded outcome of this test.
Ans. class 0

Qu. GET /call?item= `Cc1nc(NC(=S)NC(=O)c2ccccc2)sc1C` returns the recorded outcome of this test.
Ans. class 0

====

- Tested on: TRPC4 (transient receptor potential cation channel C4), mouse
- ASSAY: TRPC4 inhibition by TRPC6 hit compounds, confirmation, selectivity assay for TRPC6 modulator project, cell-based, second screen, HEK293 TRPC4/mu-opioid, membrane potential dye (AID 488928);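 note: TRPC4 counter screen for TRPC6 hits run under conditions tuned for TRPC6 not TRPC4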
- MEASUREMENT CONTEXT: membrane potential dye fluorescence, at 10 µM, stimulated with maximal-effect DAMGO
This is one part of the list. Calls of active or inactive are those of the source.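 Rule for the calls: active = drop in membrane potential signal beyond 5 SD of the control wells in both duplicate plates; inactive = the rest.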
Lab note: assign the record to one of Y = active, N = inactive

> print(dat)
                                   molecule                               target.desc  assigned.class
1  CCOC(=O)c1sc2nc(CSCC(=O)OCc3ccc(C(=O)OC)o3)[nH]c(=O)c2c1C  TRPC4 (transient receptor potential cation channel C4), mouse               N
2   CCN(CC)CCNc1nc(-c2ccc(OC(F)F)cc2)c(C)s1  TRPC4 (transient receptor potential cation channel C4), mouse               Y
3    CCOc1nc(NCCN2CCOCC2)nc(Nc2ccc(C)cc2)n1  TRPC4 (transient receptor potential cation channel C4), mouse               N
4  Nc1c(C(=O)c2cccs2)sc2nsc(SCCN3CCCCC3)c12  TRPC4 (transient receptor potential cation channel C4), mouse               N

Please examine the following record next.
Qu. GET /call?item= OCCC1CN(Cc2ccc3nsnc3c2)CCN1C1CCCCC1 (stereo not given) returns the recorded outcome of this test.
Ans. Y

====

- Test system: TRPC4 beta (transient receptor potential cation channel C4), mouse
- ASSAY: positive allosteric modulators of mouse TRPC4, confirmation, cell-based, Fluo-4, HEK293 TRPC4beta/mu-opioid (AID 2555)
- MEASUREMENT CONTEXT: DAMGO EC20, Fluo-4 calcium flux, at 10 µM
Activity calls are given as the source filed them.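 The calls were made as follows: active = primary screen hit whose calcium fluorescence ratio, in both repeats, exceeds the weak agonist control mean by 3 SD; inactive = the rest.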
Lab note: assign the record to one of True for active, False for inactive

Look over these answered cases.
> print(dat)
                                   compound  assigned.class
1  CN(C)C(CNC(=S)Nc1ccc(F)cc1)c1cccnc1 (stereo unspecified)           False
2  CCOC(=O)C1(CC2CC2)CCN(Cc2ccc(O)c(Cl)c2)CC1           False
3  NCCCn1c(C(=O)c2cc(Cl)c(N)c(Cl)c2)c2ccccc2[n+]1[O-]           False

Qu. GET /call?item= `CN(C)CCCN(C(=O)c1ccc(C(=O)c2ccccc2)cc1)c1nc2ccc(F)cc2s1` returns the recorded outcome of this test.
Ans. False

Qu. GET /call?item= `CN(C)CCCOc1cccc(Cl)c1` returns the recorded outcome of this test.
Ans. True

Qu. GET /call?item= `O=C(COc1ccccc1)NNC(=S)NC(=O)c1ccc(Cl)cc1Cl` returns the recorded outcome of this test.
Ans. False

Qu. GET /call?item= CN(C)C(CNC(C(=O)Nc1ccc(F)cc1)c1ccccc1)c1ccccc1 (stereo unspecified) returns the recorded outcome of this test.
Ans. False

Qu. GET /call?item= `CCOC(=O)C1(CCOc2ccccc2)CCN(Cc2ccc3c(c2)OCCO3)CC1` returns the recorded outcome of this test.
Ans. False

Qu. GET /call?item= `CCOC(=O)C1(CCCc2ccccc2)CCN(Cc2cn(CC)nc2C)CC1` returns the recorded outcome of this test.
Ans. False

Qu. GET /call?item= `CCN1CCN(c2ccc(S(=O)(=O)N3CCCCC3)cc2NC(=O)COc2ccccc2)CC1` returns the recorded outcome of this test.
Ans. False

Qu. GET /call?item= `O=C(NCCc1cccc(Cl)c1)c1ccc(OC2CCN(Cc3ccccn3)CC2)cc1` returns the recorded outcome of this test.
Ans. False

====

- TARGET DESC: Potassium voltage-gated channel subfamily KQT member 1 (Homo sapiens) (UniProt P51787)
- Sequence (P51787 whole entry, looked up): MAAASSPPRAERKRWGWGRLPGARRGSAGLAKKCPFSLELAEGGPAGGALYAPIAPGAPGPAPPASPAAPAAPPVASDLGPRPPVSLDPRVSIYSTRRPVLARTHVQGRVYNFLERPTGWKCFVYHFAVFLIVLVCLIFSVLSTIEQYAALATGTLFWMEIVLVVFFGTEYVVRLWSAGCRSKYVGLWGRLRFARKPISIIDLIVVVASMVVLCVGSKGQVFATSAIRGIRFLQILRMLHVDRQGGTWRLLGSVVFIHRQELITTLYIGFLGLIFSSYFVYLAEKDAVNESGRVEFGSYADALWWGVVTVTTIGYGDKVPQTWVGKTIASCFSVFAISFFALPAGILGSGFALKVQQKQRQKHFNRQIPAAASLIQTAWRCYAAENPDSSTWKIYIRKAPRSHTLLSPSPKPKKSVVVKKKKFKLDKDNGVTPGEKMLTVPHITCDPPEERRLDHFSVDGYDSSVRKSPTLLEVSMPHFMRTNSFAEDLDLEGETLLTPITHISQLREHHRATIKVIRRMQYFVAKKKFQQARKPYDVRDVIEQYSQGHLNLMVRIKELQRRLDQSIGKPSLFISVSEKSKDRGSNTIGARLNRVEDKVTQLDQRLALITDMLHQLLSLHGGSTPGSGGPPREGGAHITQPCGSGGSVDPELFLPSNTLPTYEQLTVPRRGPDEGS
- ASSAY: KCNQ1 potassium channel potentiators, confirmation, FluxOR thallium flux, CHO cells, duplicates (AID 493007)
- MEASUREMENT CONTEXT: KCNQ1 cell line, FluxOR thallium flux fluorescence, at 10 µM, % of reference activator effect, buffer zero
The source made the active and inactive calls.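 How the source made its calls: active means potentiation averaged over duplicate wells exceeding buffer-only control mean by more than 3 SD; inactive means the rest.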
Lab note: assign the record to one of active, inactive

Look over these answered cases.
> print(dat)
                                   compound  assigned.class
1  CCOc1ccc(S(=O)(=O)N2CCCC(C(=O)NCCN3CCOCC3)C2)cc1Cl (configuration not stated)          active
2  Cc1ccc(-c2nc(=S)c3c(n2Cc2ccco2)CC(C)(C)OC3)cc1        inactive
3      Fc1ccc(/C=N/NC(=S)Nc2ccc(Cl)cc2)cc1F        inactive
4  CCOc1ccc2c(c1)C(NC(C)=O)C(=O)N2CCN1CCOCC1 (configuration not stated)        inactive
5      Cc1ccc(C(=O)CC(=O)c2cccc(F)c2)c(O)c1          active

Please examine the following record next.
Qu. GET /call?item= `Cc1c(N=Cc2cc(Br)cc(Br)c2O)cccc1C(=O)O` returns the recorded outcome of this test.
Ans. active

====

- TARGET DESC: Short transient receptor potential channel 4 (Mus musculus) (UniProt Q9QUQ5)
- Sequence (Q9QUQ5 whole entry, looked up): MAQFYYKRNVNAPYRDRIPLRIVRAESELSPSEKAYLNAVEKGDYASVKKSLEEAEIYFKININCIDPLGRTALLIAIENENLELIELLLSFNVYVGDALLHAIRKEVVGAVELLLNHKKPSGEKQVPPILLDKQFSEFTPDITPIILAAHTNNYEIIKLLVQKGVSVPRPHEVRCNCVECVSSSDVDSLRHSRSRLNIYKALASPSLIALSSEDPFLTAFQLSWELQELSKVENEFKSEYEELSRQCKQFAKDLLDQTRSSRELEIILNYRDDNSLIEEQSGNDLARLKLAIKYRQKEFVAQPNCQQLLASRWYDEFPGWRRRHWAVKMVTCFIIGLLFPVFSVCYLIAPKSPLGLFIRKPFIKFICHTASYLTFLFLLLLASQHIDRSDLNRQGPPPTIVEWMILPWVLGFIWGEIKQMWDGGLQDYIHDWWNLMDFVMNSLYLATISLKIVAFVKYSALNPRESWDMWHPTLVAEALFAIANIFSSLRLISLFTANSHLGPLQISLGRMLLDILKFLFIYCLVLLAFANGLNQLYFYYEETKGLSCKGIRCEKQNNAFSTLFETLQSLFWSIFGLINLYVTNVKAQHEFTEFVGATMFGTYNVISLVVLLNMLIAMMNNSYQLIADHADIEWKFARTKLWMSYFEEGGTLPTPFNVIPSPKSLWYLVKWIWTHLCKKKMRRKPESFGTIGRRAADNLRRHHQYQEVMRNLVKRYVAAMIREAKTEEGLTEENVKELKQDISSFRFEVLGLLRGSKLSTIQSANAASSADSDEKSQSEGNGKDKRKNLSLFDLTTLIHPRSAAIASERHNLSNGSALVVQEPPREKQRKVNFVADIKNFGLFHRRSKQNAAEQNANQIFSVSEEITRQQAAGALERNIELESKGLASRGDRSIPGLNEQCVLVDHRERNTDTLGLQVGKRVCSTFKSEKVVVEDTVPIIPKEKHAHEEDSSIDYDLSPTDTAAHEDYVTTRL
- ASSAY: inhibitors of mouse TRPC4 channel, confirmation, cell-based, Fluo4, HEK293 TRPC4beta/mu-opioid (AID 2636)
- MEASUREMENT CONTEXT: DAMGO, Fluo4 calcium flux, at 10 µM
Calls of active or inactive are those of the source.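 How the source made its calls: active means calcium signal cut by more than 3 SD below the full-agonist control yet still positive, in both repeats and the earlier primary screen; inactive means the rest.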
Lab note: assign the record to one of 1 (active), 0 (inactive)

Look over these answered cases.
> print(dat)
                                   compound                               target.desc  assigned.class
1  Cc1ccc2c(C)c(C(=O)N(Cc3cccs3)C3CCS(=O)(=O)C3)oc2c1 (stereo unspecified)  Short transient receptor potential channel 4 (Mus musculus) (UniProt Q9QUQ5)               0
2  CCCCC(c1nnnn1CC1CCCO1)N1CCN(Cc2ccccc2)CC1 (stereo unspecified)  Short transient receptor potential channel 4 (Mus musculus) (UniProt Q9QUQ5)               1

Qu. GET /call?item= CN(C)C(CNC(=O)c1ccc(C(F)(F)F)cc1)c1ccco1 (stereo unspecified) returns the recorded outcome of this test.
Ans. 1

Qu. GET /call?item= `CN(C)CCCN(C(=O)c1ccc(S(=O)(=O)N2CCCCCC2)cc1)c1nc2ccc(F)cc2s1` returns the recorded outcome of this test.
Ans. 0

Qu. GET /call?item= `CC(C)(C)C(=O)NC(=S)NNC(=O)C(c1ccccc1)c1ccccc1` returns the recorded outcome of this test.
Ans. 0

Qu. GET /call?item= `CCn1c(N2CCN(C(=O)Nc3ccc(F)cc3)CC2)nc2ccccc21` returns the recorded outcome of this test.
Ans. 0

====

- TARGET DESC: Potassium voltage-gated channel subfamily KQT member 1 (Homo sapiens) (UniProt P51787)
- ASSAY: KCNQ1 potassium channel potentiators, confirmation, FluxOR thallium flux, CHO cells, duplicates (AID 493007)
- MEASUREMENT CONTEXT: KCNQ1 cell line, FluxOR thallium flux fluorescence, at 10 µM, % of reference activator effect, buffer zero
Activity calls are given as the source filed them.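 How the source made its calls: active means potentiation averaged over duplicate wells exceeding buffer-only control mean by more than 3 SD; inactive means the rest.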
Lab note: assign the record to one of active, inactive

Look over these answered cases.
> print(dat)
                            chemical.smiles  assigned.class
1         O=C(CSc1nc2ccccc2s1)c1cc2ccccc2o1        inactive
2       C=CCn1c(=S)[nH]c2nc3c(cc2c1=O)CCCC3          active
3  CCOC(=O)/C(=C\c1cccnc1)C(=O)c1cc(C(C)=O)c(Nc2ccccc2)s1        inactive
4               CCOC(=O)c1c(C)cccc1OCC(N)=O        inactive
5  COc1cc(OC)cc(C(=O)Nc2nnc(SCC(=O)NCc3ccco3)s2)c1          active

Qu. GET /call?item= `CCCCC/C=N\NC(=O)Cc1ccc([N+](=O)[O-])cc1` returns the recorded outcome of this test.
Ans. inactive

Qu. GET /call?item= `CCOC(=O)C1CCN(C(=O)COC(=O)c2cc(-c3cccs3)nn2-c2ccccc2)CC1` returns the recorded outcome of this test.
Ans. inactive

Qu. GET /call?item= `CC(C)(C)CC(C)(C)NC(=S)NC1CCN(Cc2ccccc2)CC1` returns the recorded outcome of this test.
Ans. inactive

Qu. GET /call?item= `C=CCn1c(SCc2ccc(C(=O)O)cc2)nc2sc(C)c(C)c2c1=O` returns the recorded outcome of this test.
Ans. active

Qu. GET /call?item= `CC(C)Cn1c(=S)[nH]c2cc(Cl)ccc21` returns the recorded outcome of this test.
Ans. active

Qu. GET /call?item= `Cc1ccc(S(=O)(=O)N(C)c2nc3ccccc3[nH]c2=S)cc1` returns the recorded outcome of this test.
Ans. active
